Reference source: ChEMBL document CHEMBL6134788

# PROTOCOL TEXT: Cytotoxicity against African green monkey Vero cells assessed as reduction in cell viability incubated for 72 hrs by MTT assay
# Assay type: toxicity, cell-based
# ASSAY SETUP: chlorocebus sabaeus
The following compounds are listed with their measured CC50 at 72 h values.

Use the examples below as a reference point.
>>> result("O=C(CCN1C(=O)c2cccc3cccc(c23)C1=O)NNc1ccc(Br)cc1")
"> 100 µg/mL"
>>> result("COc1cccc2c1C(=O)c1c(O)c3c(c(O)c1C2=O)C[C@@](O)(C(=O)CO)C[C@@H]3O[C@H]1C[C@H](N)[C@H](O)[C@H](C)O1 [DOXORUBICIN]")
"< 10 µg/mL"
>>> result("O=C(CCN1C(=O)c2cccc3cccc(c23)C1=O)NNc1ccc(Cl)cc1")
"> 100 µg/mL"
>>> result("N#Cc1ccc(NNC(=O)CCN2C(=O)c3cccc4cccc(c34)C2=O)cc1")
"> 100 µg/mL"

**Q:** Report CC50 at 72 h, nothing else, for this compound: C[C@H]1COc2c(N3CCN(C)CC3)c(F)cc3c(=O)c(C(=O)O)cn1c23 [LEVOFLOXACIN ANHYDROUS]
**A:** > 400 µg/mL

**Q:** Report CC50 at 72 h, nothing else, for this compound: O=C(CCN1C(=O)c2cccc3cccc(c23)C1=O)NNc1ccc(F)cc1
**A:** 80 µg/mL

###

# Test system: Acinetobacter baumannii
# PROTOCOL TEXT: Antibacterial activity against multi-drug resistant Acinetobacter baumannii Naval-18 assessed as inhibition of bacterial growth incubated for 16 to 18 hrs by CLSI protocol based method
# Type: functional
# ASSAY SETUP: time 16-18 hrs, read-out: MIC100
MEASUREMENT TYPE: MIC
Answer as a quantity: numeral, then unit.

Use the examples below as a reference point.
>>> result("CN(C)c1ccc(O)c2c1C[C@H]1C[C@H]3[C@H](N(C)C)C(O)=C(C(N)=O)C(=O)[C@@]3(O)C(O)=C1C2=O")
"1 µg/mL"
>>> result("O=C(CCN1C(=O)c2cccc3cccc(c23)C1=O)NNc1ccc(F)cc1")
"2 µg/mL"
>>> result("N#Cc1ccc(NNC(=O)CCN2C(=O)c3cccc4cccc(c34)C2=O)cc1")
"2 µg/mL"
>>> result("O=C(CCN1C(=O)c2cccc3cccc(c23)C1=O)NNc1ccc(Cl)cc1")
"1 µg/mL"
>>> result("C[C@@H](O)[C@H]1C(=O)N2C(C(=O)O)=C(S[C@@H]3CN[C@H](C(=O)N(C)C)C3)[C@H](C)[C@H]12")
"64 µg/mL"
>>> result("O=C(CCN1C(=O)c2cccc3cccc(c23)C1=O)NNc1ccc(Br)cc1")
"0.5 µg/mL"

Below: the item to evaluate.
**Q:** Please indicate recorded MIC of C[C@H]1COc2c(N3CCN(C)CC3)c(F)cc3c(=O)c(C(=O)O)cn1c23 [LEVOFLOXACIN ANHYDROUS] measured with Acinetobacter baumannii.
**A:** 4 µg/mL

###

# Tested on: Acinetobacter baumannii
# PROTOCOL TEXT: Antibacterial activity against carbapenem-resistant Acinetobacter baumannii BAA 1605 assessed as inhibition of bacterial growth incubated for 16 to 18 hrs by CLSI protocol based method
# Type: functional
# ASSAY SETUP: time 16-18 hrs, read-out: MIC100
MEASUREMENT TYPE: MIC

Use the examples below as a reference point.
>>> result("NC[C@H]1O[C@H](O[C@H]2[C@H](O)[C@@H](O[C@H]3O[C@H](CO)[C@@H](O)[C@H](N)[C@H]3O)[C@H](N)C[C@@H]2N)[C@H](N)C[C@@H]1O")
"4 µg/mL"
>>> result("O=C(CCN1C(=O)c2cccc3cccc(c23)C1=O)NNc1cc(F)cc(F)c1")
"> 64 µg/mL"
>>> result("N#Cc1ccc(NNC(=O)CCCCCN2C(=O)c3cccc4cccc(c34)C2=O)cc1")
"> 64 µg/mL"

Below: the item to evaluate.
**Q:** Report MIC, nothing else, for this compound: N#Cc1ccc(NNC(=O)CN2C(=O)c3cccc4cccc(c34)C2=O)cc1
**A:** 4 µg/mL
